Listed here are compounds together with their documented TGI.
- Tested on: RPMI-8226 leukemia
- ASSAY EXPLANATION: NCI tumour cell line growth inhibition, 48 h

* S=P1(N2CCCCC2)Oc2ccc3ccccc3c2-c2c(ccc3ccccc23)O1 | > 100 µM
* CCOC(=O)C(=O)Nc1ccc(Cl)cc1C | > 100 µM
* C=C1C(=O)OC2/C=C(/C)C3CC(O)C(C)(CC(OC(=O)/C(C)=C/C)C12)O3 (centres undefined) | > 22.4 µM
* CCN(CC)CCN1C(=O)c2c(c(-c3ccccc3)c3ccccc3c2-c2ccccc2)C1=O | > 100 µM
* N#CC(C#N)N=Nc1ccc(Br)cc1 | 8.03 µM
* Cc1ccccc1C(=O)Oc1ccc(O)cc1 | > 100 µM
* CC(=O)OC1CC2Oc3ccc(C)cc3C(C)(O2)C1=O (centres undefined) | > 100 µM
* COc1cc(Nc2ncc(F)c(Nc3ccc4c(n3)NC(=O)C(C)(C)O4)n2)cc(OC)c1OC | > 100 µM
* CCOc1ccc(NC(=O)/C(=N\NC(C)(C)C)C2C(=O)Nc3ccccc3S2=O)cc1 (centres undefined) | > 100 µM
* CCN(CC)CCCC(C)Nc1nc(C)cc(Nc2ccc3nc(C)cc(N)c3c2)n1 (centres undefined) | 23 µM

The recorded TGI with RPMI-8226 leukemia for C[C@@H](CN1CC(=O)NC(=O)C1)N1CC(=O)NC(=O)C1 was 2300 µM

The recorded TGI with RPMI-8226 leukemia for COc1cc(C=C2C(C)=NN(c3cccc(Cl)c3)C23C(Cl)C(=O)N3c2nc3ccccc3s2)ccc1O (centres undefined) was 30.5 µM

The recorded TGI with RPMI-8226 leukemia for O=C(Cc1csc(-c2nc(CC(=O)NNc3ccccc3)cs2)n1)NNc1ccccc1 was > 100 µM

The recorded TGI with RPMI-8226 leukemia for CN(C)Cc1cc(C(C)(C)C)ccc1-c1ccc(C(C)(C)C)cc1CN(C)C was > 100 µM

The recorded TGI with RPMI-8226 leukemia for COC(C(=O)C(O)C(C)O)C1CC2C=C3C=C(OC4CC(OC5CC(O)C(OC)C(C)O5)C(OC(C)=O)C(C)O4)C(C)C(=O)C3=C(O)C2=C(O)C1OC1CC(OC2CC(OC3CC(C)(O)C(OC(=O)C(C)C)C(C)O3)C(O)C(C)O2)C(O)C(C)O1 (centres undefined) was < 0.01 µM

The recorded TGI with RPMI-8226 leukemia for Cc1ccc(NC(=O)C(=O)CC(=O)C2CCOC2=O)c(C)c1 (centres undefined) was > 100 µM

The recorded TGI with RPMI-8226 leukemia for CC(=O)Oc1cc2c(c3ncccc13)OC(C)(C)C2 was > 100 µM

The recorded TGI with RPMI-8226 leukemia for O=C(O)c1cc2ccccc2oc1=O was > 100 µM

The recorded TGI with RPMI-8226 leukemia for CC(C)(C)NC(=O)NC12CC3CC(CC(F)(C3)C1)C2 was > 100 µM

====

- System: UO-31 renal
- ASSAY EXPLANATION: NCI tumour cell line growth inhibition, 48 h
Listed here are compounds together with their documented TGI.
The response must be a number in µM with no trailing unit.

* O=C(/C=C1\C[C@H]2C=Nc3ccccc3C(=O)N2C1)NCCCCNC(=O)/C=C1\C[C@H]2C=Nc3ccccc3C(=O)N2C1 | 5.77

For this compound ( Cc1cc(-c2nc3ccccc3s2)ccc1N ), measured TGI is 88.3
